pIC50 overview
# TEST: Inhibition of M-phase starfish oocytes CDK1/cyclin B after 30 mins by [gamma-33P]ATP based scintillation counting analysis
# Set-up: species or system Asteroidea
pIC50: −log10 of the molar value.
EXPERIMENTAL READOUT: pIC50

LINE NOTATION	RESULT OPERATOR	TEST VALUE
COc1ccnc2c1c(-c1ccnc(N)n1)cn2C	<	5.00
COc1ccnc2[nH]cc(-c3ccnc(N)n3)c12	=	6.77
CCCOc1ccnc2[nH]cc(-c3ccnc(N)n3)c12	=	8.15
Nc1nccc(-c2c[nH]c3nccc(O)c23)n1	=	7.24

----------
IC50 by entry:
# TARGET SYSTEM: CDK3/Cyclin E (Homo sapiens, UniProt Q00526)
# Sequence (P24864 whole entry): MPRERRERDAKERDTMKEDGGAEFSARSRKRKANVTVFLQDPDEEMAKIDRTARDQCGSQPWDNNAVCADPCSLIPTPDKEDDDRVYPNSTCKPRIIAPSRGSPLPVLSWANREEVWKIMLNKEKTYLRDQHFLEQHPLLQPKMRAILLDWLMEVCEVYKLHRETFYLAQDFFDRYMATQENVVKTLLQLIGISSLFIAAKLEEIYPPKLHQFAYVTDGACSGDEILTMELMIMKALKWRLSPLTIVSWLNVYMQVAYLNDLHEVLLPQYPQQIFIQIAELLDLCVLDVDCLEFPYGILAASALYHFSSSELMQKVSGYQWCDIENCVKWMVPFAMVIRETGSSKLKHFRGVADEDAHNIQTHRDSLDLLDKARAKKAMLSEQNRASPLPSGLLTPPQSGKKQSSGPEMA
# Sequence (Q00526 whole entry): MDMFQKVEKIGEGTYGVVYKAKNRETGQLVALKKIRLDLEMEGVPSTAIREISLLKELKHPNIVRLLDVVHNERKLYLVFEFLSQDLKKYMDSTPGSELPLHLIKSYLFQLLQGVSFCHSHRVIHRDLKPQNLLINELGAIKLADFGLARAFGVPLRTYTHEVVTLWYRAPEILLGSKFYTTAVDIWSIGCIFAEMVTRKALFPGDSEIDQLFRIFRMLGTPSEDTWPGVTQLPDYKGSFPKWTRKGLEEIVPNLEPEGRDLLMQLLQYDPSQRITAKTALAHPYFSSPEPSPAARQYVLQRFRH
# TEST: Inhibition of recombinant human CDK3/cyclin E expressed in baculovirus infected Sf9 insect cells after 80 mins in presence of [33P]ATP by microbeta scintillation counting analysis

LINE NOTATION	TARGET SYSTEM	IC50
COc1cc(F)ccc1-c1ccnc(NC(=O)[C@@H]2CC[C@H](NC(C)=O)C2)c1	CDK3/Cyclin E (Homo sapiens, UniProt Q00526)	913 to 1880 nM
COc1cc(F)ccc1-c1ccnc(NC(=O)[C@H]2CCC[C@@H](NC(C)=O)C2)c1	CDK3/Cyclin E (Homo sapiens, UniProt Q00526)	94 to 1080 nM

----------
# TARGET SYSTEM: Cyclin-dependent kinase 5/CDK5 activator 1 (Homo sapiens, UniProt Q00535)
# Sequence (Q00535 whole entry): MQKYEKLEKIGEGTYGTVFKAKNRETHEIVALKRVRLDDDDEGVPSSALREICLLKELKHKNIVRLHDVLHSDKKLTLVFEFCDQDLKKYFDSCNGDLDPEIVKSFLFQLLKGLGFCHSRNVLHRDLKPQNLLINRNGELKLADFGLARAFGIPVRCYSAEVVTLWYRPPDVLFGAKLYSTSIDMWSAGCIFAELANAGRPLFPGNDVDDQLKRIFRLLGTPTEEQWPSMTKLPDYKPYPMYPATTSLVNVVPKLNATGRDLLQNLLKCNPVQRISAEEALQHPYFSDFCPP
# Sequence (Q15078 whole entry, further chain): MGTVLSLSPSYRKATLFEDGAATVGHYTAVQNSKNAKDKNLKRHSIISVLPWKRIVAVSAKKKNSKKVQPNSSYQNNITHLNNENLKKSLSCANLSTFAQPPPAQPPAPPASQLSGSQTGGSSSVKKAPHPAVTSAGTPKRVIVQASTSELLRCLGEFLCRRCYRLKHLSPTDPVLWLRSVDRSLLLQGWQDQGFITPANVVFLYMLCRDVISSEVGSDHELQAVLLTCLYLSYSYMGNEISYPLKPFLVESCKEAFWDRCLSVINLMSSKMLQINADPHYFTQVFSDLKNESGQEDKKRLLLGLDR
# TEST: Inhibition of CDK5/p25 (unknown origin)
# Format: protein-complex assay
EXPERIMENTAL READOUT: IC50 (nM)

LINE NOTATION	EXPERIMENTAL READOUT	TEST VALUE
CC[C@H](Nc1nc(NCc2cnc(C)cc2C)c2ncn(C(C)C)c2n1)[C@@H](C)O	IC50	21

----------
# TARGET SYSTEM: Cyclin-dependent kinase 2/cyclin E1 (Homo sapiens)
# TEST: Inhibition of human recombinant GST-tagged CDK2/cyclin E expressed in Sf9 insect cells using biotin-Ttds-YISPLKSPYKISEG as substrate preincubated for 15 mins followed by substrate addition measured after 25 mins by TR-FRET assay
pIC50: −log10 of the molar value.

COMPOUND	pIC50
CS(=N)(=O)Cc1cccc(Nc2ncnc(-c3ccc(F)cc3OCc3cccc(F)c3)n2)c1 (configuration not stated)	6.59
COc1cc(F)ccc1-c1ncnc(Nc2cccc(CS(=O)(=NC#N)C3CC3)c2)n1 (configuration not stated)	6.52

----------
# TARGET SYSTEM: Cyclin-dependent kinase 2 (Homo sapiens, UniProt P24941)
EXPERIMENTAL READOUT: Kd (nM)

LINE NOTATION	EXPERIMENTAL READOUT	TEST VALUE
Cc1ccc([N+](=O)[O-])cc1S(=O)(=O)N(C)/N=C/c1cnc2ccc(Br)cn12	Kd	540

----------
# TEST: Cytotoxicity against human HeLa cells assessed as decrease in cell viability after 72 hrs by MTT assay
# Format: toxicity, cell-based
Attribute: CC50 at 72 h

COMPOUND	UNIT TAG	CC50 at 72 h
CN1CC[C@H](c2c(O)cc(O)c3c(=O)cc(-c4ccc(Br)cc4)oc23)[C@H](O)C1	nM	280
C=Cc1ccc(-c2cc(=O)c3c(O)cc(O)c([C@H]4CCN(C)C[C@H]4O)c3o2)cc1	nM	219
CN1CC[C@H](c2c(O)cc(O)c3c(=O)cc(-c4ccccc4F)oc23)[C@H](O)C1	nM	274
CN1CC[C@H](c2c(O)cc(O)c3c(=O)cc(-c4ccncc4)oc23)[C@H](O)C1	nM	3350
CN1CC[C@H](c2c(O)cc(O)c3c(=O)cc(-c4ccc(O)cc4)oc23)[C@H](O)C1	nM	20900
CN1CC[C@H](c2c(O)cc(O)c3c(=O)cc(-c4ccccc4)oc23)[C@H](O)C1	nM	190
CN1CC[C@H](c2c(O)cc(O)c3c(=O)cc(-c4ccc(C(F)(F)F)cc4)oc23)[C@H](O)C1	nM	1200
CN1CC[C@H](c2c(O)cc(O)c3c(=O)cc(-c4ccc(F)cc4)oc23)[C@H](O)C1	nM	200
CN1CC[C@H](c2c(O)cc(O)c3c(=O)cc(-c4ccccc4Cl)oc23)[C@H](O)C1 [ALVOCIDIB]	nM	120

----------
# TARGET SYSTEM: CDK2/Cyclin A2 (Homo sapiens)
# TEST: Inhibition of CDK2/cyclin A (unknown origin)
# Format: protein-complex assay
pIC50: −log10 of the molar value.

LINE NOTATION	pIC50
CC[C@H](Nc1nc(NCc2cnc(C)cc2C)c2ncn(C(C)C)c2n1)[C@@H](C)O	8.30

----------
# TARGET SYSTEM: CDK9/cyclin T1 (Homo sapiens, UniProt P50750)
# Sequence (O60563 whole entry): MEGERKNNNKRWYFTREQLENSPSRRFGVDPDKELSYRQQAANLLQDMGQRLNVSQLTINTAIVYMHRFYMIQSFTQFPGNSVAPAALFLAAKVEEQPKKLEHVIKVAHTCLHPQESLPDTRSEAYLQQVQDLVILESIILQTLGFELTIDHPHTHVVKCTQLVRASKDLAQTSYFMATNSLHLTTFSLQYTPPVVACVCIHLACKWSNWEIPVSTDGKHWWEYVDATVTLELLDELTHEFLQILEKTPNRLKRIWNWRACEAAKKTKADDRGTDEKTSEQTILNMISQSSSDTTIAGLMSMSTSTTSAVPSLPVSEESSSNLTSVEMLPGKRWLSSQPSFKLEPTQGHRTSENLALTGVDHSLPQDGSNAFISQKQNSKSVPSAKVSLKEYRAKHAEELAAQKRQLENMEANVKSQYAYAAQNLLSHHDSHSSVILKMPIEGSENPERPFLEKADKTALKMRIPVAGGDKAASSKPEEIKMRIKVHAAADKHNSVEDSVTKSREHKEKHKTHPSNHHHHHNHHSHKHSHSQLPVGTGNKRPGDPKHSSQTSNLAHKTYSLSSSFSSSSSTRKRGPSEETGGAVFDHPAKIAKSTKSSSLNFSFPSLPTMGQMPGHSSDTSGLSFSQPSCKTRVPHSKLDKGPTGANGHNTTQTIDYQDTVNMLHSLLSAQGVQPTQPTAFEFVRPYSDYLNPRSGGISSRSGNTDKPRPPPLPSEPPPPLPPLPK
# Sequence (P50750 whole entry): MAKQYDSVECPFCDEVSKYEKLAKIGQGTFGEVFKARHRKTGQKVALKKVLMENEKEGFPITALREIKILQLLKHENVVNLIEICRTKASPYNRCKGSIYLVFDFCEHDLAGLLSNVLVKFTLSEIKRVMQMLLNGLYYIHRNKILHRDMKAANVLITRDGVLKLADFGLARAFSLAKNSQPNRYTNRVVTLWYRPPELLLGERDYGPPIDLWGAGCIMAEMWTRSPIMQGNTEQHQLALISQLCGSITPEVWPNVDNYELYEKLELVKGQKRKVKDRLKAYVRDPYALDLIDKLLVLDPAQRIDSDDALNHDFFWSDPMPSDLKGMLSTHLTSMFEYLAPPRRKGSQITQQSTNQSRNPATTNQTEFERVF
# TEST: Inhibition of recombinant human full length C-terminal His6-tagged CDK9/cyclin T1 expressed in baculovirus infected Sf21 insect cells using 5TAMRA-cdk7tide as substrate after 4.5 hrs by IMAP assay
EXPERIMENTAL READOUT: IC50

LINE NOTATION	EXPERIMENTAL READOUT	TEST VALUE
Clc1cnc(NC2CCCC2)cc1-c1cnc(N2CCOCC2)c(NCC2CCOCC2)c1	IC50	3440 nM
NCCCNc1cc(-c2cncc(NCC3CCOCC3)c2)c(Cl)cn1	IC50	1860 nM
OCCNc1cc(-c2cncc(NCc3cccc(F)c3)c2)c(Cl)cn1	IC50	8 nM

----------
# TARGET SYSTEM: CDK2/Cyclin A2 (Homo sapiens, UniProt P24941)
# TEST: Inhibition of human full length C-terminal His6-tagged CDK2/N-terminal GST-tagged cyclin A using histone H1 as substrate after 10 mins by [gamma-32P]ATP based binding assay
# Format: protein-complex assay

LINE NOTATION	TARGET SYSTEM	UNIT TAG	IC50
C=Cc1ccc(-c2cc(=O)c3c(O)cc(O)c([C@H]4CCN(C)C[C@H]4O)c3o2)cc1	CDK2/Cyclin A2 (Homo sapiens, UniProt P24941)	nM	206
CN1CC[C@H](c2c(O)cc(O)c3c(=O)cc(-c4ccccc4)oc23)[C@H](O)C1	CDK2/Cyclin A2 (Homo sapiens, UniProt P24941)	nM	196
CN1CC[C@H](c2c(O)cc(O)c3c(=O)cc(-c4ccc(O)cc4)oc23)[C@H](O)C1	CDK2/Cyclin A2 (Homo sapiens, UniProt P24941)	nM	196
